Where these numbers come from: the supplement of paper PMC7877785

- Assay Explanation: self-splicing fitness, log relative to wild type (ln ratio); higher = more splicing; Tetrahymena group I intron in knt gene, E. coli kanamycin selection, DiMSum; sequences stand for … in CUCUCU…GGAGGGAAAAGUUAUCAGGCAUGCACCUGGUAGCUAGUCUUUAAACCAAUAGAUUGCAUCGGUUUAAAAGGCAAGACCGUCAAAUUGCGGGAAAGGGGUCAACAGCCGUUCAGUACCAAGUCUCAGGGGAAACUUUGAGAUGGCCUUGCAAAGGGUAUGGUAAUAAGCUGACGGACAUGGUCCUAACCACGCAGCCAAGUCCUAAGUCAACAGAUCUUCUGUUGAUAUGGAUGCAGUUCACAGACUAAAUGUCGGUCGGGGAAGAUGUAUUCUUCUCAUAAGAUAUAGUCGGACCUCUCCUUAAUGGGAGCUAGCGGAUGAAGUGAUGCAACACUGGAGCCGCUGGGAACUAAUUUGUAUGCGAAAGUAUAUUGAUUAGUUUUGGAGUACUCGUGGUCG;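 further: selection with 25 µg/mL kanamycin versus none on LB agar overnight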
- Recorded Conditions: 37 °C
Field: class. Source value: self-splicing fitness (ln). Ranges: low-valued: < -1; mid-valued: ≥ -1 and < -0.6; high-valued: ≥ -0.6

>>> category_label("UCCCAGCAAUAUUACGAAAC")
"low-valued"
>>> category_label("GAACAGCAAUAUUACGGAGA")
"low-valued"
>>> category_label("UACUAGCAAUAUUACGCACC")
"low-valued"
>>> category_label("CCGGAGCAAUAUUACGGCCG")
"mid-valued"
>>> category_label("CAGGAGCAAUAUUACGUUCG")
"high-valued"
>>> category_label("CUGCAGCAAUAUUACGAUAA")
"low-valued"
>>> category_label("CAGCAGCAAUAUUACGCCCC")
"high-valued"
>>> category_label("CCCUAGCAAUAUUACGCACU")
"low-valued"
>>> category_label("GUGCAGCAAUAUUACGGAUU")
"high-valued"
>>> category_label("AUGAAGCAAUAUUACGGCAU")
"high-valued"
>>> category_label("GUAGAGCAAUAUUACGGCCU")
"high-valued"
>>> category_label("AUCAAGCAAUAUUACGACUU")
"high-valued"
>>> category_label("CAAAAGCAAUAUUACGGAUG")
"low-valued"
>>> category_label("CGACAGCAAUAUUACGUUUU")
"low-valued"
>>> category_label("GAUGAGCAAUAUUACGCUAG")
"low-valued"
>>> category_label("ACCUAGCAAUAUUACGACCG")
"high-valued"
>>> category_label("UACUAGCAAUAUUACGAAUU")
"low-valued"
>>> category_label("CGAGAGCAAUAUUACGAGAG")
"mid-valued"
>>> category_label("UUACAGCAAUAUUACGCACU")
"high-valued"
>>> category_label("GGGGAGCAAUAUUACGCUGG")
"mid-valued"
>>> category_label("GUAUAGCAAUAUUACGUGAG")
"low-valued"
>>> category_label("CGGUAGCAAUAUUACGAUUU")
"high-valued"
>>> category_label("GCCUAGCAAUAUUACGGACA")
"high-valued"
>>> category_label("GGGAAGCAAUAUUACGUAUC")
"low-valued"
>>> category_label("CGAGAGCAAUAUUACGCACC")
"low-valued"
>>> category_label("GCAUAGCAAUAUUACGCUAG")
"low-valued"
>>> category_label("CCGGAGCAAUAUUACGGAGA")
"low-valued"
>>> category_label("UGGGAGCAAUAUUACGAGUA")
"low-valued"
>>> category_label("UCGAAGCAAUAUUACGGUGA")
"high-valued"
>>> category_label("AUGCAGCAAUAUUACGAGCC")
"mid-valued"
>>> category_label("GAAGAGCAAUAUUACGGUUU")
"mid-valued"
>>> category_label("GAACAGCAAUAUUACGACUC")
"high-valued"
